# reported IC50; entries follow
System: His-tagged recombinant human Gal-3 (hGal-3) (Homo sapiens (Human), UniProt P17931)
Sequence (P17931 whole entry): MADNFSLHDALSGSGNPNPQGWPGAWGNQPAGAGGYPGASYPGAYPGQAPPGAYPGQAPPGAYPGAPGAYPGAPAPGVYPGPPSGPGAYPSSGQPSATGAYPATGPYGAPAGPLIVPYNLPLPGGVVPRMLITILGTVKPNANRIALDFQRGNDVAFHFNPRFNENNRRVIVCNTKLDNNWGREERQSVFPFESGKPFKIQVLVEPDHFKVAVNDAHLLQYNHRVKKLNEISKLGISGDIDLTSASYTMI
Test name: Gal-3 HTRF assay (hGal-3 / B-ASF)
Assay type: binding
Measurement setup: 15 nM hGal-3, 15 nM B-ASF, three replicates, room temperature, read-out: hGal3 IC50
The figure you give is taken to be in nM; do not add the unit.

Using the record for [O-][N+]1(CCO[C@@H]2[C@@H](n3cc(-c4cc(F)c(F)c(F)c4)nn3)[C@@H](O)[C@@H](CO)O[C@@H]2Sc2ccc(Cl)c(Cl)c2)CCOCC1 [Example 13] , state its measured IC50.
50

Identify IC50 associated with the compound O=C(O)CO[C@@H]1[C@@H](n2cc(-c3cc(F)c(F)c(F)c3)nn2)[C@@H](O)[C@@H](CO)O[C@@H]1[S+]([O-])c1ccc(Cl)c(Cl)c1 (single isomer, unassigned) [18 (isomer-1)]
17

Output measured IC50 for this item: CO[C@@H]1[C@@H](n2cc(C(=O)NC3CC3)nn2)[C@@H](O)[C@@H](CO)O[C@@H]1Sc1ccc(Cl)c(Cl)c1 [Example 43]
2900

---

// values below are reported IC50
System: His-tagged recombinant human Gal-3 (hGal-3) (Homo sapiens (Human), UniProt P17931)
Test name: Gal-3 HTRF assay (hGal-3 / B-ASF)
Assay type: binding
Measurement setup: 15 nM hGal-3, 15 nM B-ASF, three replicates, room temperature, read-out: hGal3 IC50
Form entry: value (nM) — number only.

Below: 5 compounds and their reported IC50.
CC(O[C@@H]1[C@@H](n2cc(-c3cc(F)c(F)c(F)c3)nn2)[C@@H](O)[C@@H](CO)O[C@@H]1Sc1ccc(Cl)c(Cl)c1)C(=O)O (single isomer, unassigned) [Example 38 (isomer-2)] = 40
CCOC(=O)CO[C@@H]1[C@@H](n2cc(-c3cc(F)c(F)c(F)c3)nn2)[C@@H](O)[C@@H](CO)O[C@@H]1[S@@+]([O-])c1ccc(Cl)c(Cl)c1 [Example 16] = 25
CC(O[C@@H]1[C@@H](n2cc(-c3cc(F)c(F)c(F)c3)nn2)[C@@H](O)[C@@H](CO)O[C@@H]1Sc1ccc(Cl)c(Cl)c1)C(=O)O (single isomer, unassigned) [Example 38 (isomer-1)] = 150
CC(O[C@@H]1[C@@H](n2cc(-c3cc(F)c(F)c(F)c3)nn2)[C@@H](O)[C@@H](CO)O[C@@H]1S(=O)(=O)c1ccc(Cl)c(Cl)c1)C(=O)O (single isomer, unassigned) [Example 39 (isomer-2)] = 20
OC[C@H]1O[C@H](Sc2ccc(Cl)c(Cl)c2)[C@H](F)[C@@H](n2cc(-c3cc(F)c(F)c(F)c3)nn2)[C@H]1O (single isomer, unassigned) [Example 62 (isomer-1)] = 2200

Give IC50 only, for CO[C@@H]1[C@@H](n2cc(C(=O)O)nn2)[C@@H](O)[C@@H](CO)O[C@@H]1Sc1ccc(Cl)c(Cl)c1 [Example 42] , using His-tagged recombinant human Gal-3 (hGal-3) (Homo sapiens (Human), UniProt P17931) data.
5000

State IC50 on His-tagged recombinant human Gal-3 (hGal-3) (Homo sapiens (Human), UniProt P17931). Entry: O=C(O)/C=C\O[C@@H]1[C@@H](n2cc(-c3cc(F)c(F)c(F)c3)nn2)[C@@H](O)[C@@H](CO)O[C@@H]1Sc1ccc(Cl)c(Cl)c1 [Example 40 (cis-isomer)]
680

Tell me its IC50 on His-tagged recombinant human Gal-3 (hGal-3) (Homo sapiens (Human), UniProt P17931): CCO[C@@H]1[C@@H](n2cc(-c3cc(F)c(F)c(F)c3)nn2)[C@@H](O)[C@@H](CO)O[C@@H]1[S+]([O-])c1ccc(Cl)c(Cl)c1 (single isomer, unassigned) [Example 9 (isomer-2)]
340
